Where do the numbers come from? From the supplement of paper PMC9732359.

Test: protein stability index of a GFP-peptide fusion (yeast GPS) (PSI 1-4); higher = more stable; sorted into four equal gates, so the index is relative within each strain
Conditions: pdr5∆
assay_endpoint: protein stability index
Just the number, please, no unit after it.

Below, 5 sequences whose answers are already recorded.
ordered_residues	value
KRSFSSTLKSFFTNPNK [YOR098C/NUP1]	2.31
RSWTLTSEMKVLSIPPA [YGL100W/SEH1]	2.18
AGTKITICIELKTVLHN [RGR1]	1.32
ANKTNLIESLNTIRQNV [YML103C/NUP188]	1.83
KEVIELPVKHPELFESL [RPT6]	3.04

LQDVIALSIADDASSAE [RPC53] has a reported protein stability index of 1.57

Query FICSIIQTVVISLLALP [YML031W/NDC1] yields protein stability index of 1.36

What the record says about EFNGFSLYQVDPSGSYF [PRE8] : protein stability index is 2.05

* * *

Test: protein stability index of a GFP-peptide fusion (yeast GPS) (PSI 1-4); higher = more stable; sorted into four equal gates, so the index is relative within each strain
Settings: ubr1∆
assay_endpoint: protein stability index

ordered_residues	assay_endpoint	value
QLELRQLNASISLIPEL [RRI2]	protein stability index	2.85
SKVVDDMPSLRLIDLSG [GRR1]	protein stability index	2.71
RYVNLLGVTYSSPTLAT [PRE4]	protein stability index	1.1
STLTTISGNPPLLYNSL [SRB5]	protein stability index	2.56
KRAKEFITTLLKSLYSF [SIN4]	protein stability index	1.87

Noted for VAASIIPFPDHNQSPRN [RPB2] : its protein stability index reads 2.63

For record EGDGAKAAISFGAKPEE [YJL041W/NSP1] the listed protein stability index is 3.43

Record summary for KFILQILQILNLMILNT [YML103C/NUP188] : reported protein stability index = 2.09

The sequence EDFMDIPKPRTAGKTSV [SNF2] showed protein stability index equal to 3.08

// field: protein stability index; key: RVKVHFDQAGKKVSRRN [RPL13A] ; value = 3.31

// RVVTVDGKLIDISGTMS [SMC4] : protein stability index value = 3.52

GET /value?item= AELDLMSGILHCEDKDY [RPN6] &field=protein stability index returns 3.13

According to the records, this sequence ELEKYNELERNRKIYQF [SMC3] displays protein stability index of 2.67

Looking up IASAGKDGEIMLWNLAA [ASC1] , I found its protein stability index recorded as 3.09

* * *

Test: protein stability index of a GFP-peptide fusion (yeast GPS) (PSI 1-4); higher = more stable; sorted into four equal gates, so the index is relative within each strain
Conditions: pdr5∆
Rule: TRUE for protein stability index not less than 3, FALSE for anything less.

ordered_residues	category_label
VTIASEIYYDPDPRSTV [RPO21]	FALSE
LLVIGGNQRKILQYSRT [YJR042W/NUP85]	FALSE
STSKFESQYPIVTEQPS [SWP82]	FALSE
PMASSSSFGSESLTFNE [SWI1]	TRUE

# input for lookup
Reported protein stability index at or above 3? GELDVLQIESVTKETVH [PRP8] FALSE

* * *

Assay: protein stability index of a GFP-peptide fusion (yeast GPS) (PSI 1-4); higher = more stable; sorted into four equal gates, so the index is relative within each strain
Settings: ubr1∆
In this section, each of the sequences is paired with its reported protein stability index.
Respond numerically, and do not add a unit to the figure.

Example results:
ordered_residues	value
ASNEVIAKSRYWYFLQK [RPL20A]	2.72
RAYMRPLGVILTFVSVD [SCL1]	2.16
NVNKKALGQDTEKMEEQ [MED11]	3.04

Entry RKRKCGHTNQLRPKKKL [RPL40A] ; protein stability index = 3.03

get_value(item= SPTSPSYSPTSPSYSPT [RPO21] , readout=protein stability index) returns 2.82

Entry under test: SEYNFLEGSVSLPRFSK [DIS3] . Its protein stability index was 3.2

KIIEDLRQKHEFLEDFD [SMC2] yielded protein stability index of 2.94

Looking up HQGSGGSVMSASVEIVF [SMC3] , I found its protein stability index recorded as 2.26

The recorded protein stability index for KAKVDDLVLGKPLADLR [YLR335W/NUP2] is 3.35

The sequence identified as QHTTESDNISRKYEISF [RPB2] registered its protein stability index at 3.2

For reference, reported protein stability index for GRPQRKMMSFQANPTEE [RPB5] stands at 3.53

sequence RKLEISSRFKHRQEIFK [GAL11] , protein stability index observed: 3.09

Data point: TAGNWVASQTVKKVIEI [PRE2] ; protein stability index = 3.23

Per the records, this sequence ( FVDDMLRDYRFEDATRE [SNF5] ) has protein stability index equal to 3.35

Value of measured protein stability index for the entry SDPMLQRTATLCLEKLM [YCS4] : 1.14

protein stability index recorded for this sequence, LLPANLLSLNSVRSLQK [SRP68] , is 2.81

Entry RRYDRKQSGFGGQTKPV [RPL42A] ; protein stability index = 3.15

Looking up NDRESVLTNIEVYRTSL [SMC3] , I see its protein stability index listed as 2.97

The sequence listed as SVPTNSADAPNPNNVNV [RET1] shows protein stability index equal to 3.23

Sample LNVVMKNLERLRGEYND [SMC4] ; protein stability index observed: 3.66
